assay: amyloid nucleation score (Sup35N fusion, yeast selection) (log enrichment); library NNK3; higher = more nucleation; inactive = no reads after selection;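 also: zero at mode of non-aggregating sequences after 7 days selection at 30°C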
observedProperty: amyloid nucleation score

IDGWRGELVMTYN :: 0.025
RFNTDSQPAVMIVFRYNRLR :: inactive
VVQRMG :: -0.048
NRLYVKAELCSDAFRIVVAR :: inactive
PFGVKSMLAVYTHYVFGATV :: inactive

Identify the reported amyloid nucleation score for the following entry. LVEVDDASNIDCEAAYCKWY
inactive

Identify the reported amyloid nucleation score for the following entry. YLVSLRLVYSNILEFVKRVC
inactive

Identify the reported amyloid nucleation score for the following entry. RGSWSYQILWINTVRW
-0.347

Identify the reported amyloid nucleation score for the following entry. VLKFFLTAMVD
inactive

Identify the reported amyloid nucleation score for the following entry. MWVGKHDVYTRDFM
inactive

Identify the reported amyloid nucleation score for the following entry. MVLCSKGIVNSARLAFKKSR
inactive

Identify the reported amyloid nucleation score for the following entry. MSFVSSRGVNKWQVETGLLE
inactive

---

test: amyloid nucleation score (Sup35N fusion, yeast selection) (log enrichment); library NNK2; higher = more nucleation; inactive = no reads after selection
For each entry below, report its amyloid nucleation score value.
Answer with the value's number alone.

Identify the reported amyloid nucleation score for the following entry. WGAEILAHVGPSHEYSR
-0.175

Identify the reported amyloid nucleation score for the following entry. NNLATPRQRVWLQVTLPARP
0.692

Identify the reported amyloid nucleation score for the following entry. CISSMVALMGGPWNEMLGTW
0.767

Identify the reported amyloid nucleation score for the following entry. PEWFGR
0.588

Identify the reported amyloid nucleation score for the following entry. PSRVSVSYM
2.69

Identify the reported amyloid nucleation score for the following entry. LQSTILIYVVNFFTTGIMGK
1.75

Identify the reported amyloid nucleation score for the following entry. PAASLRLRELMRYDDWRGVA
0.03

Identify the reported amyloid nucleation score for the following entry. VLLQNYAMVAFT
-1.07

Identify the reported amyloid nucleation score for the following entry. RSRVLILCDEGRNCVL
-0.533

---

test: amyloid nucleation score (Sup35N fusion, yeast selection) (log enrichment); library NNK1; higher = more nucleation; inactive = no reads after selection
If the reported amyloid nucleation score equals or exceeds -0.2, assign y. If not, assign n.

Would you say SCLKSDVYVCCEDLRRLDCV shows amyloid nucleation score at minimum -0.2?
n

Would you say FFYSNALLWSWIVGYSCTRL shows amyloid nucleation score at minimum -0.2?
y

Would you say GRCLCGLVDDYFYNAYWVLP shows amyloid nucleation score at minimum -0.2?
n

Would you say VVSMSQEVEAPRAPHMAAFK shows amyloid nucleation score at minimum -0.2?
y

Would you say NSVHWTASGSDSIPTAIESR shows amyloid nucleation score at minimum -0.2?
y

Would you say VRCLGWVDHERVRDLCIHSG shows amyloid nucleation score at minimum -0.2?
n

Would you say LCDLWQHFSSSNVTGGLRRN shows amyloid nucleation score at minimum -0.2?
y

Would you say LQYWEVYSSCRMRVGYYSAD shows amyloid nucleation score at minimum -0.2?
y

Would you say QQSFVTSLVMYVDRYRFVQV shows amyloid nucleation score at minimum -0.2?
y

Would you say SELFWMVGMGSLSSRYNSPF shows amyloid nucleation score at minimum -0.2?
y

Would you say DEDDSD shows amyloid nucleation score at minimum -0.2?
y

Would you say SLYYEG shows amyloid nucleation score at minimum -0.2?
y

Would you say TSEDMC shows amyloid nucleation score at minimum -0.2?
n

Would you say SIQNPLNLVDNLPTT shows amyloid nucleation score at minimum -0.2?
y

Would you say YRMVCVLITVPANQIYCLLH shows amyloid nucleation score at minimum -0.2?
y

Would you say VWPAQGS shows amyloid nucleation score at minimum -0.2?
n

Would you say MLHICCFQSVHLMDWSSH shows amyloid nucleation score at minimum -0.2?
y

Would you say WQFYTVL shows amyloid nucleation score at minimum -0.2?
n

Would you say HLKHVWSYLPSSNVEEMQ shows amyloid nucleation score at minimum -0.2?
y

Would you say VRMDHIRTKPPLHAIVAPQP shows amyloid nucleation score at minimum -0.2?
n

Would you say ATVSDF shows amyloid nucleation score at minimum -0.2?
n

Would you say RIYTYSNCVGLKLAFTFAYR shows amyloid nucleation score at minimum -0.2?
y

Would you say MRLHLGWNYEMHRKNRALSI shows amyloid nucleation score at minimum -0.2?
n

Would you say MYCITDEVNRYKCCKTGKEF shows amyloid nucleation score at minimum -0.2?
y

Would you say GLETNNLARLVCGSRCFLSD shows amyloid nucleation score at minimum -0.2?
n

Would you say NSWQLFYLCSQLIRKSSTLC shows amyloid nucleation score at minimum -0.2?
y

Would you say MTIQVTIGNYLGLVYFFPLS shows amyloid nucleation score at minimum -0.2?
y

Would you say RALRGSECGMNRRPLRGCVK shows amyloid nucleation score at minimum -0.2?
y

Would you say FGSSPRSDVVKHQNINEEVI shows amyloid nucleation score at minimum -0.2?
y

Would you say DSKPVIILR shows amyloid nucleation score at minimum -0.2?
n

Would you say LTCFVISVGTSSLIIDFWI shows amyloid nucleation score at minimum -0.2?
n

Would you say RGLQNCASSTVRESGR shows amyloid nucleation score at minimum -0.2?
y

Would you say FDNLIVYVTVYFFLTYAPFV shows amyloid nucleation score at minimum -0.2?
y

Would you say DPSPLR shows amyloid nucleation score at minimum -0.2?
n

Would you say LDRMFSVVRNNVTTSVLSEK shows amyloid nucleation score at minimum -0.2?
y

Where these numbers come from: the supplement of paper PMC12042874
